# Tested on: M07e
# Design: species or system AML cell lines (8); Primary HTS, single concentration about 10 uM, Cell Titer Glo viability; log10 luminescence, per cent inhibition relative to cycloheximide control
# assay.conditions: 72 h, relative to cycloheximide control, log10 luminescence; inhibitor
Counter-ions that a name gives are not always drawn.
# key: entry, value: M07e %inh
Your answer should be a plain number; it is taken to be in %.

{"molecule": "COC(=O)CCCC1=CC2=CC(=O)C(C)(OC(=O)c3cccs3)C(=O)C2=CN1C1CCCCC1 (stereo not drawn)", "target.desc": "M07e", "observed.value": -0.3619}

Entry `C[C@H](O)CNc1cc(-c2[nH]c3cccnc3c2-c2ccc(F)cc2)ccn1` : M07e %inh on M07e = -0.9304

Entry `COc1cc[nH]c1/C=C1\C(=O)Nc2ccc(F)c(I)c21` : M07e %inh on M07e = 4.603

Entry `CCCCOCCOc1nc(-c2ccc(C(=O)O)c(F)c2)sc1C` : M07e %inh on M07e = 1.286

Entry `Fc1cccc(COc2ccc(Nc3ncnc4sc(-c5ccco5)cc34)cc2Cl)c1` : M07e %inh on M07e = -3.433

Entry COc1cccc(OC)c1C(=O)N[C@@H]1C(=O)N2[C@@H]1SC(C)(C)[C@@H]2C(=O)O [SJ000285650-3, METHICILLIN SODIUM] : M07e %inh on M07e = -0.3426

Entry `NC(=O)c1sc(-n2cnc3ccccc32)cc1OCc1ccccc1Br` : M07e %inh on M07e = 3.083

Entry `Nc1c(C(=O)c2ccc(C#CCN3CCOCC3)cc2)cnn1-c1ccc(F)cc1` : M07e %inh on M07e = -0.05766

Entry `C[C@]1(O)C[C@@H](c2nc(-c3ccc4ccc(-c5ccccc5)nc4c3)c3c(N)nccn32)C1` : M07e %inh on M07e = 2.638

Entry `Nc1nc(-c2ccc(F)cc2)c(-c2ccc3ncccc3n2)s1` : M07e %inh on M07e = 0.3459

Entry `CN(C)C(=O)O[C@@H]1CN[C@@H](C#Cc2cc3ncnc(Nc4ccc(OCc5cccc(F)c5)c(Cl)c4)c3s2)C1` : M07e %inh on M07e = -1.206

Entry `Cn1c(=O)c(Oc2ccc(F)cc2)cc2cnc(NC3CCOCC3)nc21` : M07e %inh on M07e = 1.712

Entry `CS(=O)(=O)CCN(CC#N)Cc1ccc(-c2ccc3ncnc(Nc4ccc(OCc5cccc(F)c5)c(Cl)c4)c3c2)o1` : M07e %inh on M07e = 3.973

Entry `[O-][S+]1CCN(Cc2ccc(-c3ccc4ncnc(Nc5ccc(OCc6ccccc6)c(F)c5)c4c3)o2)CC1` : M07e %inh on M07e = -1.871

Entry CCN(CC)C(=O)N1CCN(C)CC1 [SJ000285736-4, DIETHYLCARBAMAZINE CITRATE] : M07e %inh on M07e = -3.005

###

# Tested on: CMK
# Parameters: species or system AML cell lines (8); Primary HTS, single concentration about 10 uM, Cell Titer Glo viability; log10 luminescence, per cent inhibition relative to cycloheximide control
# assay.conditions: 72 h, relative to cycloheximide control, log10 luminescence, inhibitor, CMK %inh, 10 µM
Where a name gives a salt, the structure may show the parent alone.
# key: entry, value: CMK %inh
Your answer should be a plain number; it is taken to be in %.

{"compound": "CCCCNc1cc(C(=O)O)cc(S(N)(=O)=O)c1Oc1ccccc1 [SJ000285893-8, BUMETANIDE]", "measurement.kind": "CMK %inh", "observed.value": -0.903}
{"compound": "CO[C@@H]1[C@H](OC(=O)/C=C/C=C/C=C/C=C/C(=O)O)CC[C@]2(CO2)[C@H]1[C@@]1(C)O[C@@H]1CC=C(C)C", "measurement.kind": "CMK %inh", "observed.value": -0.114}
{"compound": "Cc1ccccc1N1CCN(CCc2nnc3n2CCCC3)CC1 [SJ000565164-2, DAPIPRAZOLE HYDROCHLORIDE]", "measurement.kind": "CMK %inh", "observed.value": -2.237}

Reported CMK %inh for `CC=CC1=C(C(=O)O)N2C(=O)[C@@H](NC(=O)[C@H](N)c3ccc(O)cc3)[C@H]2SC1` was -7.257

Reported CMK %inh for `OCCN1CCN(CCCN2c3ccccc3Sc3ccc(Cl)cc32)CC1` was 10.21

Reported CMK %inh for `COc1ccc2cc(CCC(C)=O)ccc2c1` was 3.657
